System: A-427
experimental-details: relative viability (nuclei count vs DMSO), 5 days (fraction); higher = more cells survive
details: first compound 0.006325 µM
endpoint: relative viability
Answers are plain numbers.

Q. State its relative viability: CC(=O)O[C@@]12CO[C@@H]1C[C@H](O)[C@@]1(C)C(=O)[C@H](O)C3=C(C)[C@@H](OC(=O)[C@H](O)[C@@H](NC(=O)OC(C)(C)C)c4ccccc4)C[C@@](O)([C@@H](OC(=O)c4ccccc4)[C@H]21)C3(C)C [Docetaxel] + CS(=O)(=O)CCNCc1ccc(-c2ccc3ncnc(Nc4ccc(OCc5cccc(F)c5)c(Cl)c4)c3c2)o1 [Lapatinib] (partner 2 µM)
A. 0.211

----------
Provide the recorded relative viability for the entries that follow.
System: LCLC-103H
experimental-details: relative viability (nuclei count vs DMSO), 5 days (fraction); higher = more cells survive
details: first compound 0.01581 µM
Give bare numbers.

Look over these answered cases.
compound | tested-target | relative viability
Nc1ccn([C@@H]2O[C@H](CO)[C@@H](O)[C@@H]2O)c(=O)n1 [Cytarabine] + CC(C)C[C@H](NC(=O)[C@H](Cc1ccccc1)NC(=O)c1cnccn1)B(O)O [Bortezomib] (partner 0.002 µM) | LCLC-103H | 1.17
Nc1ccn([C@@H]2O[C@H](CO)[C@@H](O)[C@@H]2O)c(=O)n1 [Cytarabine] + CS(=O)(=O)N1CCN(Cc2cc3nc(-c4cccc5[nH]ncc45)nc(N4CCOCC4)c3s2)CC1 [Pictilisib] (partner 1 µM) | LCLC-103H | 0.624
COc1cc2nccc(Oc3ccc(NC(=O)Nc4cc(C)on4)c(Cl)c3)c2cc1OC [Tivozanib] + COc1cccc2cc(-c3nc([C@H]4CC[C@H](C(=O)O)CC4)n4ncnc(N)c34)[nH]c12 [OSI-027] (partner 0.5 µM) | LCLC-103H | 0.481

For each entry beneath this line, provide reported relative viability.
1. COc1cc2nccc(Oc3ccc(NC(=O)Nc4cc(C)on4)c(Cl)c3)c2cc1OC [Tivozanib] + COc1cc2c(Oc3ccc(NC(=O)C4(C(=O)Nc5ccc(F)cc5)CC4)cc3F)ccnc2cc1OCCCN1CCOCC1 [Foretinib] (partner 0.25 µM)
2. Nc1ccn([C@@H]2O[C@H](CO)[C@@H](O)[C@@H]2O)c(=O)n1 [Cytarabine] + Nc1nc2[nH]cc(CCc3ccc(C(=O)N[C@@H](CCC(=O)O)C(=O)O)cc3)c2c(=O)[nH]1 [Pemetrexed] (partner 0.2 µM)
3. Nc1ccn([C@@H]2O[C@H](CO)[C@@H](O)[C@@H]2O)c(=O)n1 [Cytarabine] + COc1cc2c(Oc3ccc(NC(=O)C4(C(=O)Nc5ccc(F)cc5)CC4)cc3F)ccnc2cc1OCCCN1CCOCC1 [Foretinib] (partner 0.25 µM)

A.
1. 0.809
2. 0.467
3. 0.817

For each entry beneath this line, provide reported relative viability.
1. COc1cc2nccc(Oc3ccc(NC(=O)Nc4cc(C)on4)c(Cl)c3)c2cc1OC [Tivozanib] + CC(C)C[C@H](NC(=O)[C@H](Cc1ccccc1)NC(=O)c1cnccn1)B(O)O [Bortezomib] (partner 0.002 µM)
2. COc1cc2nccc(Oc3ccc(NC(=O)Nc4cc(C)on4)c(Cl)c3)c2cc1OC [Tivozanib] + O=C(CCCCCCC(=O)Nc1ccccc1)NO [Vorinostat] (partner 1 µM)
3. COc1cc2nccc(Oc3ccc(NC(=O)Nc4cc(C)on4)c(Cl)c3)c2cc1OC [Tivozanib] + Cc1nc(Nc2ncc(C(=O)Nc3c(C)cccc3Cl)s2)cc(N2CCN(CCO)CC2)n1 [Dasatinib] (partner 0.075 µM)

A.
[1.01, 0.809, 0.524]
